Test system: MKN45 cells
Test: MKN45 cell proliferation assay (CellTiter-Glo)
Assay type: cell-based
Details: MKN45 cell line, 3 days incubation, at least duplicate experiments, read-out: Prolif. IC50
pIC50: −log10 of the molar value.
testReadout: pIC50

>>> recordedresult("CC(c1c(Cl)ccc(F)c1Cl)c1c[nH]c2ncc(-c3cnn(C4CCN(C=O)CC4)c3)cc12 (stereo not shown)")
"≥ 7.00"

* * *

Biological target: phosphorylated c-MET (Homo sapiens, UniProt P08581)
Construct: endogenous in cells; host or cells: MKN45
Sequence (P08581 25-1390): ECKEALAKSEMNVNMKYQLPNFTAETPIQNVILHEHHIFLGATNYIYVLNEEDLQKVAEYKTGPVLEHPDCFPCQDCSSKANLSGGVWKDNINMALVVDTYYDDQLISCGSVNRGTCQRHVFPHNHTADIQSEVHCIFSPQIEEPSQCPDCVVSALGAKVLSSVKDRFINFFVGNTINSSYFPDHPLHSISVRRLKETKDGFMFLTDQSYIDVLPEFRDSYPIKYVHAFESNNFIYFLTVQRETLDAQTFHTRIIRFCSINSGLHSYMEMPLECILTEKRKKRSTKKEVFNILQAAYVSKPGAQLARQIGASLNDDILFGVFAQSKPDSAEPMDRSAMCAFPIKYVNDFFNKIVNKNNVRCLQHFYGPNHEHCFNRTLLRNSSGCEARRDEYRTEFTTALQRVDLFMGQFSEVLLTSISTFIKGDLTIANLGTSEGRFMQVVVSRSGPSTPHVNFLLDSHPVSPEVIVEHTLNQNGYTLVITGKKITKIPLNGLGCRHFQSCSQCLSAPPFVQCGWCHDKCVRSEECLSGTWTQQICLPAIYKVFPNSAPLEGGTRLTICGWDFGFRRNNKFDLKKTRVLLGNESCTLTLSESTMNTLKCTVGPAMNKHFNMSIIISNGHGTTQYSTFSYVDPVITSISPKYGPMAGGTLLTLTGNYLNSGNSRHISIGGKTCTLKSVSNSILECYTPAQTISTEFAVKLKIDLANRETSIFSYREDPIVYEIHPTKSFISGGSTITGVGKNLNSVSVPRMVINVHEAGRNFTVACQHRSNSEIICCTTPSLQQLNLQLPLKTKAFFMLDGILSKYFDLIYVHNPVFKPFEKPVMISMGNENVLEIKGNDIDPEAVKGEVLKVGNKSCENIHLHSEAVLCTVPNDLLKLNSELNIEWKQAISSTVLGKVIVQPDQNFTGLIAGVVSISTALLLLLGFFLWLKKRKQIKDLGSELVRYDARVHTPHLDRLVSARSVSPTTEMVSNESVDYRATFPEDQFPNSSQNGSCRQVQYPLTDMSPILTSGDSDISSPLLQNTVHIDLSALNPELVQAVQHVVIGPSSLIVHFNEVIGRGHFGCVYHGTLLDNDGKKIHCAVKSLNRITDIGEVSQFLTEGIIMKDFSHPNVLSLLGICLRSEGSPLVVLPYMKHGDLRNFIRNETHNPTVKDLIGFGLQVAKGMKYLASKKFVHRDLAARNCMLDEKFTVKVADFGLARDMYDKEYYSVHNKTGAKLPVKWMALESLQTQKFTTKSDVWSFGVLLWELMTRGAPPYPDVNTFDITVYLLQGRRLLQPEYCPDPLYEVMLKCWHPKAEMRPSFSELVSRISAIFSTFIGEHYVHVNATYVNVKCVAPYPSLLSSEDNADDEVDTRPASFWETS
Assay: c-MET cell mechanistic assay (phosphorylated c-MET in MKN45 cells)
Format: cell-based
Settings: MKN45 cell line, four hours incubation, phosphorylated c-MET levels, at least duplicate experiments; read-out: Met mech IC50
pIC50: −log10 of the molar value.
testReadout: pIC50

>>> recordedresult("C[C@@H](c1c(Cl)ccc(F)c1Cl)c1c[nH]c2ncc(-c3cnn(C4CCN(C=O)CC4)c3)cc12")
"6.00 to 7.00"
>>> recordedresult("C[C@H](c1c(Cl)ccc(F)c1Cl)c1c[nH]c2ncc(-c3cnn([C@H]4CC[C@@H](O)CC4)c3)cc12")
"≥ 7.00"
>>> recordedresult("CC(c1c(Cl)ccc(F)c1Cl)c1c[nH]c2ncc(C3=CCN(C(N)=O)CC3)cc12 (stereo not shown)")
"≥ 7.00"
>>> recordedresult("CNC(=O)c1ccc(-c2cnc3[nH]cc(C(C)c4c(Cl)ccc(F)c4Cl)c3c2)cc1 (stereo not shown)")
"6.00 to 7.00"
>>> recordedresult("C[C@H](c1c(Cl)ccc(F)c1Cl)c1c[nH]c2ncc(-c3cnn(CC(=O)N4CCN(C)CC4)c3)cc12")
"≥ 7.00"
>>> recordedresult("CC(c1c(Cl)ccc(F)c1Cl)c1c[nH]c2ncc(C3=CCN(C(=O)C(C)(C)N)CC3)cc12 (stereo not shown)")
"≥ 7.00"
>>> recordedresult("CC(c1c(Cl)ccc(F)c1Cl)c1c[nH]c2ncc(-c3cnn(C4CCN(C=O)CC4)c3)cc12 (stereo not shown)")
"≥ 7.00"
>>> recordedresult("CC(=O)N1CC(n2cc(-c3cnc4[nH]cc(C(C)c5c(Cl)ccc(F)c5Cl)c4c3)cn2)C1 (stereo not shown)")
"≥ 7.00"
>>> recordedresult("CC(c1c(Cl)ccc(F)c1Cl)c1c[nH]c2ncc(-c3cccnc3)cc12 (stereo not shown)")
"6.00 to 7.00"
>>> recordedresult("CC(c1c(Cl)ccc(F)c1Cl)c1c[nH]c2ncc(-c3cnn(C(C)C)c3)cc12 (stereo not shown)")
"≥ 7.00"
>>> recordedresult("C[C@@H](c1c(Cl)ccc(F)c1Cl)c1c[nH]c2ncc(-c3cnn(C4CCNCC4)c3)cc12")
"6.00 to 7.00"
>>> recordedresult("CNC(=O)C(C)(C)n1cc(-c2cnc3[nH]cc(C(C)c4c(Cl)ccc(F)c4Cl)c3c2)cn1 (stereo not shown)")
"≥ 7.00"
>>> recordedresult("C[C@H](c1c(Cl)ccc(F)c1Cl)c1c[nH]c2ncc(-c3cnn(C[C@H](O)CO)c3)cc12")
"≥ 7.00"
>>> recordedresult("C[C@@H](c1c(Cl)ccc(F)c1Cl)c1c[nH]c2ncc(-c3cnn(C4CCN(S(C)(=O)=O)CC4)c3)cc12")
"5.00 to 6.00"
>>> recordedresult("CC(c1c(Cl)ccc(F)c1Cl)c1c[nH]c2ncc(C3=CCN(C(=O)N(C)C)CC3)cc12 (stereo not shown)")
"6.00 to 7.00"
>>> recordedresult("CC(c1c(Cl)ccc(F)c1Cl)c1c[nH]c2ncc(C3=CCN(C(=O)C(C)(C)O)CC3)cc12 (stereo not shown)")
"6.00 to 7.00"
>>> recordedresult("C[C@H](c1c(Cl)ccc(F)c1Cl)c1c[nH]c2ncc(-c3cnn(C4CCN(S(C)(=O)=O)CC4)c3)cc12")
"≥ 7.00"
>>> recordedresult("CC(c1c(Cl)ccc(F)c1Cl)c1c[nH]c2ncc(C3=CCN(S(N)(=O)=O)CC3)cc12 (stereo not shown)")
"6.00 to 7.00"
>>> recordedresult("CC(c1c(Cl)ccc(F)c1Cl)c1c[nH]c2ncc(-c3cnn(C4CCN(S(C)(=O)=O)CC4)c3)cc12 (stereo not shown)")
"≥ 7.00"
>>> recordedresult("CC(c1c(Cl)ccc(F)c1Cl)c1c[nH]c2ncc(-c3cn[nH]c3)cc12 (stereo not shown)")
"6.00 to 7.00"
>>> recordedresult("C[C@H](c1c(Cl)ccc(F)c1Cl)c1c[nH]c2ncc(-c3cnn([C@H]4CC[C@H](O)CC4)c3)cc12")
"≥ 7.00"
>>> recordedresult("CC(=O)N1CCC(n2cc(-c3cnc4[nH]cc(C(C)c5c(Cl)ccc(F)c5Cl)c4c3)cn2)CC1 (stereo not shown)")
"≥ 7.00"
>>> recordedresult("CC(c1c(Cl)ccc(F)c1Cl)c1c[nH]c2ncc(-c3cnn(C4CCC(=O)CC4)c3)cc12 (stereo not shown)")
"≥ 7.00"
>>> recordedresult("CC(c1c(Cl)ccc(F)c1Cl)c1c[nH]c2ncc(-c3cnn(C4CCN(CC(F)(F)F)CC4)c3)cc12 (stereo not shown)")
"6.00 to 7.00"
>>> recordedresult("CC(c1c(Cl)ccc(F)c1Cl)c1c[nH]c2ncc(-c3ccc(C(=O)NCCN(C)C)cc3)cc12 (stereo not shown)")
"6.00 to 7.00"
>>> recordedresult("CNC(=O)N1CCC(n2cc(-c3cnc4[nH]cc(C(C)c5c(Cl)ccc(F)c5Cl)c4c3)cn2)CC1 (stereo not shown)")
"≥ 7.00"
>>> recordedresult("CC(c1c(Cl)ccc(F)c1Cl)c1c[nH]c2ncc(-c3ccc(C(=O)NCCN4CCOCC4)cc3)cc12 (stereo not shown)")
"6.00 to 7.00"
>>> recordedresult("C[C@H](c1c(Cl)ccc(F)c1Cl)c1c[nH]c2ncc(-c3cnn(C4CCN(C(N)=O)CC4)c3)cc12")
"≥ 7.00"
>>> recordedresult("CC(c1c(Cl)ccc(F)c1Cl)c1c[nH]c2ncc(-c3ccc(C(=O)N(C)C)cc3)cc12 (stereo not shown)")
"6.00 to 7.00"
>>> recordedresult("CC(c1c(Cl)ccc(F)c1Cl)c1c[nH]c2ncc(-c3cnn(C4CN(C(N)=O)C4)c3)cc12 (stereo not shown)")
"≥ 7.00"
>>> recordedresult("C[C@@H](c1c(Cl)ccc(F)c1Cl)c1c[nH]c2ncc(-c3cnn(C4CCN(C(N)=O)CC4)c3)cc12")
"5.00 to 6.00"
